meta.source: paper PMC8086025

# procedureDetails: Rat PK, IV/PO cross over and brain penetration
# Format: in vivo
# conditionSet: rat, in vivo; 5mg/kg po.; read-out: Rat p.o. AUCt
endpoint: AUC(0-t) (ng·h/mL)
Report only the number, with the unit ng·h/mL understood.

compound Cc1cc(CO)nc2cc3c(cc12)OC(C)(C)[C@H](O)[C@H]3NCCc1ccccc1 , AUC(0-t) observed: 6420

====

endpoint: Ki (nM)
Report only the number, with the unit nM understood.

Sample Cc1cc(CO)nc2cc3c(cc12)OC(C)(C)[C@H](O)[C@H]3NCCc1ccccc1 , system: Dopamine transporter (Homo sapiens). Its Ki is 550

====

# procedureDetails: Rat PK, IV/PO cross over and brain penetration
# Type: in vivo
# conditionSet: rat, in vivo; 5mg/kg po.; read-out: Rat p.o. AUC∞
endpoint: AUC(0-inf) (ng·h/mL)
Report only the number, with the unit ng·h/mL understood.

compound Cc1cc(CO)nc2cc3c(cc12)OC(C)(C)[C@H](O)[C@H]3NCCc1ccccc1 , AUC(0-inf) observed: 16800

====

# procedureDetails: Rat PK, IV/PO cross over and brain penetration
# Format: in vivo
# conditionSet: rat, in vivo; 1mg/kg iv.
endpoint: Vd (L/kg)
Report only the number, with the unit L/kg understood.

molecule Cc1cc(CO)nc2cc3c(cc12)OC(C)(C)[C@H](O)[C@H]3NCCc1ccccc1 , Vd observed: 1

====

# testedOn: Purinergic Channels P2Y
# procedureDetails: Radioligand binding, [35S]dATPaS
# conditionSet: reference compound run for the assay
endpoint: pIC50
Keep in mind that pIC50 stands for -log10 of concentration in molar terms.

compound Nc1ncnc2c1ncn2[C@H]1C[C@H](O)[C@@H](COP(O)(=S)OP(=O)(O)OP(=O)(O)O)O1 (stereo partly shown) [dATPaS] , pIC50 observed: 7.70

====

# testedOn: GABA Cl- channel (GABA-gated)
# procedureDetails: Radioligand binding, [35S]TBPS
# conditionSet: reference compound run for the assay
endpoint: IC50 (nM)
Report only the number, with the unit nM understood.

Sample C=C(C)[C@@H]1[C@H]2OC(=O)[C@@H]1[C@]1(O)C[C@H]3O[C@]34C(=O)O[C@H]2[C@]14C [picrotoxinin, reference compound] , system: GABA Cl- channel (GABA-gated). Its IC50 is 150

====

# testedOn: Benzodiazepine BDZ Central
# procedureDetails: Radioligand binding, [3H]flunitrazepam
# conditionSet: read-out: Reference: IC50
endpoint: IC50

molecule CN1C(=O)CN=C(c2ccccc2)c2cc(Cl)ccc21 , IC50 observed: 8.6 nM

====

# testedOn: SKCa
# procedureDetails: Radioligand binding, [125I]apamin
# Parameters: species or system rat
# conditionSet: reference compound run for the assay
Ends that are not written are not given here.
endpoint: IC50 (pM)
Report only the number, with the unit pM understood.

substance apamin (CNCKAPETALCARRCQQH; ends and bridges not checked; cysteine pairing not given here; UniProt P01500 28-45, looked up) , IC50 observed: 9.1

====

# testedOn: Adrenergic α2
# procedureDetails: Radioligand binding, [3H]prazosin
# conditionSet: reference compound run for the assay
endpoint: pIC50
Keep in mind that pIC50 stands for -log10 of concentration in molar terms.

compound COc1cc2nc(N3CCN(C(=O)c4ccco4)CC3)nc(N)c2cc1OC , pIC50 observed: 9.74

====

# testedOn: Dopamine transporter (Homo sapiens)
# Sequence (Q01959 whole entry): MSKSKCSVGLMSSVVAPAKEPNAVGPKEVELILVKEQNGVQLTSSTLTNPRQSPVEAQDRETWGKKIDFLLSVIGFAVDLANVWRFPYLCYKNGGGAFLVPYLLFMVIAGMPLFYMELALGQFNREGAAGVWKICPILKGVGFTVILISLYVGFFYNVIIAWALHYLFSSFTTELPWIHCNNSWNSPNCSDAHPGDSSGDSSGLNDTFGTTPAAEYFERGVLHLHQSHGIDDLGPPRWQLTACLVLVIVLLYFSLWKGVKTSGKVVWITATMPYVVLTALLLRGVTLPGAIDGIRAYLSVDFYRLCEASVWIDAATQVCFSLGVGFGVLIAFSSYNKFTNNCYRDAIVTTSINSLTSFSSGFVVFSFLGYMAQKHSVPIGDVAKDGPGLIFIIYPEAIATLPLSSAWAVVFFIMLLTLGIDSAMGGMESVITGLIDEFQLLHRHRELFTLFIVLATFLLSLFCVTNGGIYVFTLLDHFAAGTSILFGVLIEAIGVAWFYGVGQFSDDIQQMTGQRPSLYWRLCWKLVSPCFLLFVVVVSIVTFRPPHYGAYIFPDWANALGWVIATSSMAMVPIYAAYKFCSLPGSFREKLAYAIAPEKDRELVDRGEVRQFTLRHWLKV
endpoint: IC50 (µM)
Report only the number, with the unit µM understood.

compound Cc1cc(CO)nc2cc3c(cc12)OC(C)(C)[C@H](O)[C@H]3NCCc1ccccc1 [BP-G1] , IC50 observed: 1

====

# testedOn: 5-HT2B (Homo sapiens, UniProt P41595)
# Sequence (P41595 whole entry): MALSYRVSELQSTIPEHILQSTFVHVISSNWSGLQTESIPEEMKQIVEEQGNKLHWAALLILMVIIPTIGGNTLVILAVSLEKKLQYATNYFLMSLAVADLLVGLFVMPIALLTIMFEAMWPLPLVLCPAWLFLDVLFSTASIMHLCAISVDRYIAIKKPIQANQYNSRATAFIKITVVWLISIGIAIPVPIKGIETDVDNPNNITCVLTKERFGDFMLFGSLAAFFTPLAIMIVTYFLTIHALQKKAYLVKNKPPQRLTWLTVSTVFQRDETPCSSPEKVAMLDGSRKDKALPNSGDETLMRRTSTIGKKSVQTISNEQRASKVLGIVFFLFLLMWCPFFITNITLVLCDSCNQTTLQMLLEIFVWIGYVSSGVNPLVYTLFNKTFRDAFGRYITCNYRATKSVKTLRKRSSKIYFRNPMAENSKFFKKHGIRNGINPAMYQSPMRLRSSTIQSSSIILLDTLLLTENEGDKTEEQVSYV
endpoint: IC50 (nM)
Report only the number, with the unit nM understood.

compound COc1cc(CC(C)N)c(OC)cc1I (racemic) [(±)DOI] , IC50 observed: 5

====

# procedureDetails: Plasma protein binding, human
# Format: in vitro ADME
# conditionSet: read-out: Human PPB (converted)
endpoint: fraction unbound
Just the number, please, no unit after it.

compound Cc1cc(CO)nc2cc3c(cc12)OC(C)(C)[C@H](O)[C@H]3NCCc1ccccc1 [BP-G1] , fraction unbound observed: 0.03

====

# testedOn: Kir3.4 (Homo sapiens, UniProt P48544)
# Sequence (P48544 1-419): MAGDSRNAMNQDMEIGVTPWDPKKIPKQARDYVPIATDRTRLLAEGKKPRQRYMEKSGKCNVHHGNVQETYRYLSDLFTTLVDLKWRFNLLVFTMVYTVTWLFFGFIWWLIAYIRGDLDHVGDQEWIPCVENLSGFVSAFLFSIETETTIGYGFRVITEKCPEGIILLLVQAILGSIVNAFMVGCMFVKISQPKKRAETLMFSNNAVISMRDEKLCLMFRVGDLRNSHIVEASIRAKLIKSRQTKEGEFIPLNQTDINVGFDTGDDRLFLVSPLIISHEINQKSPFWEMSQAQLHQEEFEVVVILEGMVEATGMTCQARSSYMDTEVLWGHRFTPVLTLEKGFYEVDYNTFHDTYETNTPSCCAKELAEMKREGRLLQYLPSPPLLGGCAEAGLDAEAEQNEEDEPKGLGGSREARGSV
# procedureDetails: Cloned cardiac ion channel patch clamp, Kir3.4
endpoint: pIC50
Keep in mind that pIC50 stands for -log10 of concentration in molar terms.

compound Cc1cc(CO)nc2cc3c(cc12)OC(C)(C)[C@H](O)[C@H]3NCCc1ccccc1 , pIC50 observed: 4.70

====

# procedureDetails: Rat PK, IV/PO cross over and brain penetration
# Type: in vivo
# conditionSet: rat, in vivo; 1mg/kg iv. / 5mg/kg po.; read-out: Oral bioavailability F%
endpoint: bioavailability

compound Cc1cc(CO)nc2cc3c(cc12)OC(C)(C)[C@H](O)[C@H]3NCCc1ccccc1 , bioavailability observed: 32%

====

# procedureDetails: Rat PK, IV/PO cross over and brain penetration
# Format: in vivo
# conditionSet: rat, in vivo; 1mg/kg iv.
endpoint: clearance (mL/min/kg)
Report only the number, with the unit mL/min/kg understood.

compound Cc1cc(CO)nc2cc3c(cc12)OC(C)(C)[C@H](O)[C@H]3NCCc1ccccc1 , clearance observed: 3.39

====

# procedureDetails: Rat PK, IV/PO cross over and brain penetration
# Type: in vivo
# conditionSet: rat, in vivo; 1mg/kg iv.; read-out: Rat iv. AUC∞
endpoint: AUC(0-inf) (ng·h/mL)
Report only the number, with the unit ng·h/mL understood.

molecule Cc1cc(CO)nc2cc3c(cc12)OC(C)(C)[C@H](O)[C@H]3NCCc1ccccc1 [BP-G1] , AUC(0-inf) observed: 4950

====

# testedOn: Kv1.5 (Homo sapiens, UniProt P22460)
# Sequence (P22460 whole entry): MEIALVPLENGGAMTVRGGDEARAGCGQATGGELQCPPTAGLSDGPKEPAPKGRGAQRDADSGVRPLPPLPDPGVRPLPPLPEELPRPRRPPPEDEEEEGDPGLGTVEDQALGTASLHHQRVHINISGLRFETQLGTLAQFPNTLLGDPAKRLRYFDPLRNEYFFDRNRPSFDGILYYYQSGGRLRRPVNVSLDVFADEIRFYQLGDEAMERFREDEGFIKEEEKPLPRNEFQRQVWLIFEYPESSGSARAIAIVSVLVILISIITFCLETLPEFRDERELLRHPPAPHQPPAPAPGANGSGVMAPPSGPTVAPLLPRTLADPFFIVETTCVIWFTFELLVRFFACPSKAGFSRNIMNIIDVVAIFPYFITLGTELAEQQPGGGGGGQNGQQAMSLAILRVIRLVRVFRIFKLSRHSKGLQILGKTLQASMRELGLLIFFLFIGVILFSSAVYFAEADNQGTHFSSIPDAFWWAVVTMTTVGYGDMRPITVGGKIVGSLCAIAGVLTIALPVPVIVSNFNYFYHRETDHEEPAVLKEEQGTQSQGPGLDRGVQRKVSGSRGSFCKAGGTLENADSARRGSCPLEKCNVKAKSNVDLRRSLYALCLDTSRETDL
# procedureDetails: Cloned cardiac ion channel manual patch clamp, Kv1.5
# Assay type: cell-based
# conditionSet: MPC (manual patch clamp)
endpoint: pIC50
Keep in mind that pIC50 stands for -log10 of concentration in molar terms.

compound Cc1cc(CO)nc2cc3c(cc12)OC(C)(C)[C@H](O)[C@H]3NCCc1ccccc1 , pIC50 observed: 4.79

====

# testedOn: Kir6.2/SUR2A (Homo sapiens, UniProt O60706+Q14654)
# Construct: Andrew Tinker, UCL; host or cells: HEK293
# Sequence (Q14654 whole entry): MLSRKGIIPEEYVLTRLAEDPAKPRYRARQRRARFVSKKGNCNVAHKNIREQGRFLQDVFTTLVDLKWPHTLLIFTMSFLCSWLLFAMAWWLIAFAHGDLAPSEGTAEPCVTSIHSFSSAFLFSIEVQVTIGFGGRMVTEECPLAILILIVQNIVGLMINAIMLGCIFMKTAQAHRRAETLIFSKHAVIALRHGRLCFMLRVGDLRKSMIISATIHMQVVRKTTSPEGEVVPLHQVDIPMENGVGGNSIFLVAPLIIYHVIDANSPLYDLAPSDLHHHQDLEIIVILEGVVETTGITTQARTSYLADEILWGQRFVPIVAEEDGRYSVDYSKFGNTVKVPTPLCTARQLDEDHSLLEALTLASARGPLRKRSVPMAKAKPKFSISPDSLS
# Sequence (O60706 whole entry): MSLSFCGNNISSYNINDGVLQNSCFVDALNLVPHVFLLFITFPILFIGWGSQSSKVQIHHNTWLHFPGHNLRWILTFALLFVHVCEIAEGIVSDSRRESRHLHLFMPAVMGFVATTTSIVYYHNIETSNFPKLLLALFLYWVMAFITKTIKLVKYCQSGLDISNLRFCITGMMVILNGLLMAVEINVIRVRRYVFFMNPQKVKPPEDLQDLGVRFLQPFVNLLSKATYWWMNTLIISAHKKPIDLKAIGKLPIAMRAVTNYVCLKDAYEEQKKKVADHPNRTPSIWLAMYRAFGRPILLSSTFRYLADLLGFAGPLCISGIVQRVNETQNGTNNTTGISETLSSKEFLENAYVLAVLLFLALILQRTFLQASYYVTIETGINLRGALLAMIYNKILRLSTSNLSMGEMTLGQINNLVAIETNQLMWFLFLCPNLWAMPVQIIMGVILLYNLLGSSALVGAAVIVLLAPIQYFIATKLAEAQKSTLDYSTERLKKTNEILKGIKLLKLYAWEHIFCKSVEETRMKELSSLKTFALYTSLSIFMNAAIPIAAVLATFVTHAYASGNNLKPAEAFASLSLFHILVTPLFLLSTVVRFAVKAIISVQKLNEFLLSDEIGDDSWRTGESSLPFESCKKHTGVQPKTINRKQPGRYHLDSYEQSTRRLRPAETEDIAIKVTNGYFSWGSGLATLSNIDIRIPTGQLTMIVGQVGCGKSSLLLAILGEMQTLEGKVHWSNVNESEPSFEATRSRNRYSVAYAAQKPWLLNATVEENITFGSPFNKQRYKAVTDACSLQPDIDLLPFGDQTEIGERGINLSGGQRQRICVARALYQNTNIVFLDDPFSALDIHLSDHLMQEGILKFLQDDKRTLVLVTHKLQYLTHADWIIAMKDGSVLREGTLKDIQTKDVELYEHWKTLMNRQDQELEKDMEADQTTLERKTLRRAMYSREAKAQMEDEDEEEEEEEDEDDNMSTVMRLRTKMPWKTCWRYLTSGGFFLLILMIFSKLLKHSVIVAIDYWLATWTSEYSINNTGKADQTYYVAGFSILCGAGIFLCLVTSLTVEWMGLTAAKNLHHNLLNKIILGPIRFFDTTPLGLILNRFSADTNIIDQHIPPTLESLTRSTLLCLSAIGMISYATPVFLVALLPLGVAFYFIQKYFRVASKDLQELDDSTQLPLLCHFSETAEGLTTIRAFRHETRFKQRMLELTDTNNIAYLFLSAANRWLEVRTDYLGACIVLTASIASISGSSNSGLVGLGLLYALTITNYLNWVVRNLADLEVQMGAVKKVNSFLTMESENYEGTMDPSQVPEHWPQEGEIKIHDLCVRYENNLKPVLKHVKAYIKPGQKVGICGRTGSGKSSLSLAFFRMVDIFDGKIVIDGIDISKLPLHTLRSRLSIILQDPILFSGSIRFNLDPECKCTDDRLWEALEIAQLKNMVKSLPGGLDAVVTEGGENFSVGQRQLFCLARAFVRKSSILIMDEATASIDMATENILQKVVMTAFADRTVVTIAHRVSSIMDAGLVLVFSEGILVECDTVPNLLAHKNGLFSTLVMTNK
# procedureDetails: Cloned cardiac ion channel patch clamp, Kir6.2/SUR2A
# Format: cell-based
endpoint: IC50

molecule Cc1cc(CO)nc2cc3c(cc12)OC(C)(C)[C@H](O)[C@H]3NCCc1ccccc1 [BP-G1] , IC50 observed: > 10 µM

====

# testedOn: α1 adrenergic receptor
# procedureDetails: Radioligand binding, [3H]prazosin
# conditionSet: read-out: Ki, α1 (non-selective)
endpoint: Ki (µM)
Report only the number, with the unit µM understood.

Sample Cc1cc(CO)nc2cc3c(cc12)OC(C)(C)[C@H](O)[C@H]3NCCc1ccccc1 [BP-G1] , system: α1 adrenergic receptor. Its Ki is 3.5

====

# testedOn: Kv1.7 (Homo sapiens, UniProt Q96RP8)
# Sequence (Q96RP8 whole entry): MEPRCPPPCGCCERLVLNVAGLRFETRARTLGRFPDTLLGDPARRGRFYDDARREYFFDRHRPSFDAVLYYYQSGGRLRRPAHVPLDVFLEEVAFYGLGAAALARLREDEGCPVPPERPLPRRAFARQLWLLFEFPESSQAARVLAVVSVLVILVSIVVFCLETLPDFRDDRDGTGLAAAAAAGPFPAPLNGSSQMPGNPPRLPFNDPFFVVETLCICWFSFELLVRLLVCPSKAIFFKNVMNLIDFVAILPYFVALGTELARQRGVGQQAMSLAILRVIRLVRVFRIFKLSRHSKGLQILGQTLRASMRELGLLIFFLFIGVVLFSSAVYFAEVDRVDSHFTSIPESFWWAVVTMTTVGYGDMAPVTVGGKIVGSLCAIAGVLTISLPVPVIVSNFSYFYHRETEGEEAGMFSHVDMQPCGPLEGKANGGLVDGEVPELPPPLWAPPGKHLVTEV
# procedureDetails: Cloned cardiac ion channel electrophysiology, Kv1.7
endpoint: pIC50
Keep in mind that pIC50 stands for -log10 of concentration in molar terms.

molecule Cc1cc(CO)nc2cc3c(cc12)OC(C)(C)[C@H](O)[C@H]3NCCc1ccccc1 [BP-G1] , pIC50 observed: 5.15

====

# procedureDetails: Rat PK, IV/PO cross over and brain penetration
# Format: in vivo
# conditionSet: rat, in vivo; 5mg/kg po.
endpoint: Cmax
Answer shape: numeric part, then the unit.

compound Cc1cc(CO)nc2cc3c(cc12)OC(C)(C)[C@H](O)[C@H]3NCCc1ccccc1 [BP-G1] , Cmax observed: 1190 ng/mL

====

# procedureDetails: Rat PK, IV/PO cross over and brain penetration
# Assay type: in vivo
# conditionSet: rat, in vivo; listed under 5mg/kg po.
endpoint: half-life (h)
Report only the number, with the unit h understood.

compound Cc1cc(CO)nc2cc3c(cc12)OC(C)(C)[C@H](O)[C@H]3NCCc1ccccc1 , half-life observed: 12.2
